Tested system: genetically engineered tyrosine aminotransferase (Escherichia coli, UniProt P04693)
Construct: made in house; host or cells: E. coli
Sequence (P04693 whole entry, change not shown): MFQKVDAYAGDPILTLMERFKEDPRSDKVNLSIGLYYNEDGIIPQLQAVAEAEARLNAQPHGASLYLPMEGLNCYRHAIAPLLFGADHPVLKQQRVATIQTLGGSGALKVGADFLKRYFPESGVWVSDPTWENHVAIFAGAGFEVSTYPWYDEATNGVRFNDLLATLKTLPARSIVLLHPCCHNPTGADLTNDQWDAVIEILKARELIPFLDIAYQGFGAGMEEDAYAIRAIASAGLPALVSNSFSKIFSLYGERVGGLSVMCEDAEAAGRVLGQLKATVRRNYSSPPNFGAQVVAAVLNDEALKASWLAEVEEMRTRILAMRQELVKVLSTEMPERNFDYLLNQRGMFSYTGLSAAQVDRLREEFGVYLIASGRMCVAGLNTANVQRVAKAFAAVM
Measurement notes: Tyrosine aminotransferase-catalyzed amino transfer to 2-oxo-4-phenylbutyric acid with various amino acids as amino donors
Format: biochemical, E. coli
Test parameters: amino acid 0.20 mmol, 2-oxo-4-phenylbutyric acid 0.10 mmol, enzyme 1 unit, 5 mL Tris-HCl 20 mM pH 8.5, 37° C., 5 min
Criterion: turnover rate meeting or surpassing 0.04 mM/min.unit. Met: class 1. Not met: class 0.

CSCC[C@H](N)C(=O)O class 1
C[C@H](N)C(=O)O class 1
N[C@@H](Cc1c[nH]cn1)C(=O)O class 1
NCC(=O)O class 0

Please turn your attention to the following entry.
Is the recorded value of turnover rate equal to or greater than 0.04 mM/min.unit for this compound? `CC[C@H](C)[C@H](N)C(=O)O`
class 0

###

Tested system: tyrosine aminotransferase (Escherichia coli)
Construct: made in house; host or cells: E. coli
Sequence (P04693 whole entry): as the sequence (P04693 whole entry, change not shown) above
Measurement notes: Equilibrium constants of the tyrosine aminotransferase-catalyzed reaction with 2-oxo-4-phenylbutyric acid and various amino acids
Type: biochemical, E. coli
Test parameters: 2-oxo-4-phenylbutyric acid and the amino acid as substrates
Overview of reported Equilibrium Constant (Keq) across a group of compounds:
Answer as a number with no unit attached.

Reference set (3 entries):
N[C@@H](CCC(=O)O)C(=O)O 0.345
N[C@@H](Cc1ccc(O)cc1)C(=O)O 0.727
N[C@@H](CC(=O)O)C(=O)O 0.187

# context switch: different compound, same Equilibrium Constant (Keq)
Request the reported Equilibrium Constant (Keq) associated with `N[C@@H](Cc1ccccc1)C(=O)O`
0.466

###

Tested system: genetically engineered tyrosine aminotransferase (Escherichia coli)
Construct: made in house; host or cells: E. coli
Measurement notes: Tyrosine aminotransferase-catalyzed amino transfer to 2-oxo-4-phenylbutyric acid with various amino acids as amino donors
Type: biochemical, E. coli
Test parameters: amino acid 0.20 mmol, 2-oxo-4-phenylbutyric acid 0.10 mmol, enzyme 1 unit, 5 mL Tris-HCl 20 mM pH 8.5, 37° C., 5 min; increase of homophenylalanine by HPLC
Criterion: initial rate meeting or surpassing 1. Met: satisfied. Not met: not satisfied.

Is the recorded value of initial rate equal to or greater than 1 for this compound? `NCC(=O)O`
not satisfied

What about `N[C@@H](CC(=O)O)C(=O)O` ?
satisfied

What about `N[C@@H](Cc1c[nH]cn1)C(=O)O` ?
not satisfied

###

Tested system: genetically engineered tyrosine aminotransferase (Escherichia coli, UniProt P04693)
Construct: made in house; host or cells: E. coli
Measurement notes: Tyrosine aminotransferase-catalyzed amino transfer to 2-oxo-4-phenylbutyric acid with various amino acids as amino donors
Type: biochemical, E. coli
Test parameters: amino acid 0.20 mmol, 2-oxo-4-phenylbutyric acid 0.10 mmol, enzyme 1 unit, 5 mL Tris-HCl 20 mM pH 8.5, 37° C., 5 min
Quantity: turnover rate (mM/min.unit)
Numbers only here, please. The scale is mM/min.unit.

N[C@@H](CC(=O)O)C(=O)O 0.372
C[C@@H](O)[C@H](N)C(=O)O 0.009
CC(C)[C@H](N)C(=O)O 0.058
NCCCC[C@H](N)C(=O)O 0.046

Request the reported turnover rate associated with `CC(C)C[C@H](N)C(=O)O`
0.106

What about `N[C@@H](CO)C(=O)O` ?
0.002

###

Overview of reported initial rate across a group of compounds:
Tested system: genetically engineered tyrosine aminotransferase (Escherichia coli)
Construct: made in house; host or cells: E. coli
Measurement notes: Tyrosine aminotransferase-catalyzed amino transfer to 2-oxo-4-phenylbutyric acid with various amino acids as amino donors
Type: biochemical, E. coli
Set-up: unit not given here
Test parameters: amino acid 0.20 mmol, 2-oxo-4-phenylbutyric acid 0.10 mmol, enzyme 1 unit, 5 mL Tris-HCl 20 mM pH 8.5, 37° C., 5 min; increase of homophenylalanine by HPLC
Answer as a number with no unit attached.

Compound	Tested system	initial rate
CC(C)C[C@H](N)C(=O)O [L-Leu, leucine]	genetically engineered tyrosine aminotransferase (Escherichia coli)	0.58
CSCC[C@H](N)C(=O)O [L-Met, methionine]	genetically engineered tyrosine aminotransferase (Escherichia coli)	1.47
C[C@H](N)C(=O)O [L-Ala, alanine]	genetically engineered tyrosine aminotransferase (Escherichia coli)	0.23
NCCCC[C@H](N)C(=O)O [L-Lys, lysine]	genetically engineered tyrosine aminotransferase (Escherichia coli)	0.25
C[C@@H](O)[C@H](N)C(=O)O [L-Thr, threonine]	genetically engineered tyrosine aminotransferase (Escherichia coli)	0.05

Request the reported initial rate associated with N[C@@H](Cc1ccc(O)cc1)C(=O)O [L-Tyr, tyrosine]
3.43

What about N[C@@H](CO)C(=O)O [L-Ser, serine] ?
0.01

What about N[C@@H](CCC(=O)O)C(=O)O [L-Glu, glutamic acid] ?
2.96

What about CC[C@H](C)[C@H](N)C(=O)O [L-Ile, isoleucine] ?
0.03

What about CC(C)[C@H](N)C(=O)O [L-Val, valine] ?
0.32

What about N[C@@H](Cc1ccccc1)C(=O)O [L-Phe, phenylalanine] ?
3.32

The measured values listed here are drawn from patent US6146859A.
